Numbers sourced from patent US20230295140A1.

Reported pIC50 values for the following molecules.
Experimental Target: rhMAO-A (Homo sapiens (Human), UniProt P21397)
Sequence (P21397 whole entry): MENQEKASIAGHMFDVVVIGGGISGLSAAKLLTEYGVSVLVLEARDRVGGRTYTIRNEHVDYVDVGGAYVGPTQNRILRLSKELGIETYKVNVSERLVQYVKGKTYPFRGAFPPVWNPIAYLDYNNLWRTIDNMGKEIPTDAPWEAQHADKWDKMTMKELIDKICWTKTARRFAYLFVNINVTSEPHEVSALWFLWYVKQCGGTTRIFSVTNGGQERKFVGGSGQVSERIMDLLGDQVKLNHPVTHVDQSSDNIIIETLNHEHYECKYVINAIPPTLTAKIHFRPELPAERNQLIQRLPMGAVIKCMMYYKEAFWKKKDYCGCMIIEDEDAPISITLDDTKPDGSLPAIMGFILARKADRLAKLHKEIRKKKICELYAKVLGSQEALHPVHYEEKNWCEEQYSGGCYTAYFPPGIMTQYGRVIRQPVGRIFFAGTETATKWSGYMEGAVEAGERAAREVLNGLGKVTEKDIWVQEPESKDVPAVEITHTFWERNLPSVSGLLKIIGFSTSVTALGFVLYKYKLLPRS
Assay Comment: MAO-Glo assay, MAO-A inhibition
Format: biochemical
Test Settings: bound printed in cell
pIC50: −log10 of the molar value. Where a name gives a salt, the structure may show the parent alone.

{"Molecule": "NC/C(=C\\F)COc1ccc2nc(NCc3ccc(C(F)(F)F)nc3)oc2c1 [Example 84, 4-methylbenzenesulfonate]", "pIC50": "< 4.40"}
{"Molecule": "COCCNc1nc2ccc(OC/C(=C\\F)CN)cc2o1 [Example 61, 4-methylbenzenesulfonate]", "pIC50": "< 4.30"}
{"Molecule": "NC/C(=C/F)COc1ccc2nc(NCc3ccncc3)oc2c1 [Example 94, 4-methylbenzenesulfonate]", "pIC50": "< 4.30"}
{"Molecule": "NC/C(=C/F)COc1ccc2nc(NCc3cccnc3)oc2c1 [Example 58, bis(4-methylbenzenesulfonate)]", "pIC50": "< 4.30"}
{"Molecule": "Cc1cc(CNc2nc3ccc(OC/C(=C/F)CN)cc3o2)cc(C)n1 [Example 91, trihydrochloride]", "pIC50": "< 4.30"}
{"Molecule": "CNC(=O)CN(Cc1ccccc1)c1nc2ccc(OC/C(=C/F)CN)cc2o1 [Example 53, 4-methylbenzenesulfonate]", "pIC50": "< 4.30"}
